- Tested on: ATP;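 also: ATP exposure 15 min at 22 °C before imaging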
- test_method_notes: switch fluorescence ratio, 500 uM ATP over buffer (Cy3 cluster intensity, sum of 5 cycles each) (fold (ratio)); higher = stronger signal-on switching upon ATP binding; sequences stand for … in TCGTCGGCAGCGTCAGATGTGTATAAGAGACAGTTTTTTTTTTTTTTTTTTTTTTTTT…TC
- condition_context: aptamer strand: ATP DNA aptamer (quencher-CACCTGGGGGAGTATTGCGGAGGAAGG + anchor), 100 nM annealed; ATP concentration: 500 uM
Below is a list of entries, each paired with its recorded switch fluorescence ratio value.
Kindly provide the number alone.

// below: answered sequences
[[record]]
seq_text = "GTCGGGGCTG"
target_under_test = "ATP"
number = 0.972

[[record]]
seq_text = "GGGGGGTCAA"
target_under_test = "ATP"
number = 0.967

[[record]]
seq_text = "GACCGGGCCC"
target_under_test = "ATP"
number = 1.01

[[record]]
seq_text = "ACTGTGTTAT"
target_under_test = "ATP"
number = 0.983

[[record]]
seq_text = "TTCGTACGAG"
target_under_test = "ATP"
number = 1

[[record]]
seq_text = "GGTAAGTAGG"
target_under_test = "ATP"
number = 1.03


Pending sequence:
Form field switch fluorescence ratio, entry AGGTGGGATT : 1.02
